Just for reference, paper PMC6416464 is where these values come from.

Provide the reported % Contribution of CYP Enzymes (fmCYP) in Metabolism, CYP2C8 of each item.
Molecular target: rCYP2C8 (Homo sapiens)
Sequence (P10632 whole entry): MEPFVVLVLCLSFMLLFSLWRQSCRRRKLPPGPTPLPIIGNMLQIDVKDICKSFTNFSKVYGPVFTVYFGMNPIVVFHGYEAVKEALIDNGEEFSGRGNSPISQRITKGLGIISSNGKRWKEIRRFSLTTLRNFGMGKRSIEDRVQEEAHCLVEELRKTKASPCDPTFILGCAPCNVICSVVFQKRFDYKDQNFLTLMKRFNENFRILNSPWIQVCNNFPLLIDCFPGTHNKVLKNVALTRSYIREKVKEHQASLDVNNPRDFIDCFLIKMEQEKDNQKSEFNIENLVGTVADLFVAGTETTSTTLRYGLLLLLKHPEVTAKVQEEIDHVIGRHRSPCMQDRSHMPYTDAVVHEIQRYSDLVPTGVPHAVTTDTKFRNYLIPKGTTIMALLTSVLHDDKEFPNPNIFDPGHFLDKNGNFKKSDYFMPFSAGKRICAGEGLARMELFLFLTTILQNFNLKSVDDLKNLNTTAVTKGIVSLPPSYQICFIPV
Test: Metabolic stability / reaction phenotyping with recombinant human CYP2C8
Conditions: human, recombinant human CYP2C8, 1 µM, pH 7.4
Give bare numbers, in %.

- MOLECULE: "CCCSc1ccc2nc(NC(=O)OC)[nH]c2c1 [Albendazole, albendazole, reference compound]"
  OBSERVED_VALUE: 0.50
- MOLECULE: "O=C1Cc2cc(CCN3CCN(c4nsc5ccccc45)CC3)c(Cl)cc2N1 [Ziprasidone, ziprasidone, reference compound]"
  OBSERVED_VALUE: 8.96
- MOLECULE: "CNC(=O)Oc1cc(C)c(SC)c(C)c1"
  OBSERVED_VALUE: 4.94
- MOLECULE: "CNC(=O)O/N=C/C(C)(C)SC"
  OBSERVED_VALUE: 56.91

Let us examine a further case.
Requested read-out: % Contribution of CYP Enzymes (fmCYP) in Metabolism, CYP2C8. Entry: CC(C)(O)c1ccccc1CC[C@@H](SCC1(CC(=O)O)CC1)c1cccc(/C=C/c2ccc3ccc(Cl)cc3n2)c1 [Montelukast, montelukast, reference compound]
39.00

----------
Target: rCYP3A4 (Homo sapiens)
Sequence (P08684 whole entry): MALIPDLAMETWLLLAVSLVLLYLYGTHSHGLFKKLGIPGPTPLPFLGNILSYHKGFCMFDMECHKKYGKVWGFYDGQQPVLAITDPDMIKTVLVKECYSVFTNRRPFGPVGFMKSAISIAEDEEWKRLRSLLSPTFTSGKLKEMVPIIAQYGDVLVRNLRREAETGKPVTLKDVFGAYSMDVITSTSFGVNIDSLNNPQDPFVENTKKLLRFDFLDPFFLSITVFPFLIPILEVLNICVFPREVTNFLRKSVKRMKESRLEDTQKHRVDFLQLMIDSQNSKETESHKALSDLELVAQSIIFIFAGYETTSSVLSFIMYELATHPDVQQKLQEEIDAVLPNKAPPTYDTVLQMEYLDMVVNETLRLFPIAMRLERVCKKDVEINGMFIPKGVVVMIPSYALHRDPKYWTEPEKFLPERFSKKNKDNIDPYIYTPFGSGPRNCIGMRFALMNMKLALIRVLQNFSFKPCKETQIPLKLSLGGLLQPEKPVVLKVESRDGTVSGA
Details: human, pH 7.4
MEASURED_QUANTITY: Predicted Microsomal Clint, CYP3A4 (µL/min/mg Protein)
One number for each entry, in µL/min/mg Protein.

Previously resolved entries follow.
- COMPOUND: "O=C1Cc2cc(CCN3CCN(c4nsc5ccccc45)CC3)c(Cl)cc2N1 [Ziprasidone, ziprasidone, reference compound]"
  EXPERIMENTAL_SYSTEM: "rCYP3A4 (Homo sapiens)"
  Predicted Microsomal Clint, CYP3A4 (µL/min/mg Protein): 53.530
- COMPOUND: "CC(C)(O)c1ccccc1CC[C@@H](SCC1(CC(=O)O)CC1)c1cccc(/C=C/c2ccc3ccc(Cl)cc3n2)c1 [Montelukast, montelukast, reference compound]"
  EXPERIMENTAL_SYSTEM: "rCYP3A4 (Homo sapiens)"
  Predicted Microsomal Clint, CYP3A4 (µL/min/mg Protein): 19.054
- COMPOUND: "CNC(=O)O/N=C/C(C)(C)[S+](C)[O-] (centres unmarked) [Aldicarb sulfoxide, aldicarb sulfoxide]"
  EXPERIMENTAL_SYSTEM: "rCYP3A4 (Homo sapiens)"
  Predicted Microsomal Clint, CYP3A4 (µL/min/mg Protein): 2.254
- COMPOUND: "CSc1nc2cc(Cl)c(Oc3cccc(Cl)c3Cl)cc2[nH]1 [Triclabendazole, reference compound]"
  EXPERIMENTAL_SYSTEM: "rCYP3A4 (Homo sapiens)"
  Predicted Microsomal Clint, CYP3A4 (µL/min/mg Protein): 4.604

Let us examine a further case.
Requested read-out: Predicted Microsomal Clint, CYP3A4. Entry: CNC(=O)Oc1cc(C)c(SC)c(C)c1
188.076

----------
Target: CYP2C19 (Homo sapiens)
Sequence (P33261 whole entry): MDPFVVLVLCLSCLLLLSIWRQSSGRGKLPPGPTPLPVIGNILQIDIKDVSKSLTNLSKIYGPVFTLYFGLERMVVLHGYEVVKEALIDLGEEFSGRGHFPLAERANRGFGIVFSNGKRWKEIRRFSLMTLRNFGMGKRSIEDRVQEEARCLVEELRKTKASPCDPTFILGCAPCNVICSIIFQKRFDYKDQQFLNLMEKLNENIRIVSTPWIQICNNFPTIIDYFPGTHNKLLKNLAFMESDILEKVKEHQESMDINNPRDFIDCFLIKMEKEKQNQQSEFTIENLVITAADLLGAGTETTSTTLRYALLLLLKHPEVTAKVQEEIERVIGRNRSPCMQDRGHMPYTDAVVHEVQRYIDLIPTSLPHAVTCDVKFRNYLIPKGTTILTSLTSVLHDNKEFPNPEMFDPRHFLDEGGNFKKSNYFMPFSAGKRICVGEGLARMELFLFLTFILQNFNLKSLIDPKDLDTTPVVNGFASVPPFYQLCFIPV
Assay: CYP inhibition in human liver microsomes, CYP2C19
MEASURED_QUANTITY: pIC50
Answers are plain numbers, as −log10 of the molar value.

Requested read-out: pIC50. Entry: CSc1nc2cc(Cl)c(Oc3cccc(Cl)c3Cl)cc2[nH]1 [Triclabendazole, reference compound]
6.60

----------
Biological target: rCYP2C9 (Homo sapiens)
Sequence (P11712 whole entry): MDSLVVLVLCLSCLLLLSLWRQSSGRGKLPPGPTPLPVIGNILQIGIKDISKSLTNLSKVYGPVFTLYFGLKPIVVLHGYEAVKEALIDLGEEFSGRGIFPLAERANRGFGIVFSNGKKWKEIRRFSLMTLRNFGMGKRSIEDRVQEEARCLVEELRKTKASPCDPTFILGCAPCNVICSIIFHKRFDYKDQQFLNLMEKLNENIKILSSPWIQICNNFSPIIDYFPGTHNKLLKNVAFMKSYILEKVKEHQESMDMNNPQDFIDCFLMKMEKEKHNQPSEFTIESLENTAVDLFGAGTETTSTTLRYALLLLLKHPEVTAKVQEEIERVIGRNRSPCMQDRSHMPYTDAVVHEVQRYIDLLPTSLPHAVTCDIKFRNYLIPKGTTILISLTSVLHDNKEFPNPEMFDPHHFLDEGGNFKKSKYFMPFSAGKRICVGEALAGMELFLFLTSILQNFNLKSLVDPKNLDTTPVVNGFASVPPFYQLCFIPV
Experiment: Metabolic stability / reaction phenotyping with recombinant human CYP2C9
Conditions: 1 µM test compound; 100 pmol/mL; 30 min
MEASURED_QUANTITY: % Metabolized at 30 min Incubation with Human Liver Fractions/Enzymes rCYP2C9 (%)
Give bare numbers, in %.

Previously resolved entries follow.
- COMPOUND: "CNC(=O)O/N=C/C(C)(C)[S+](C)[O-] (centres unmarked) [Aldicarb sulfoxide, aldicarb sulfoxide]"
  EXPERIMENTAL_SYSTEM: "rCYP2C9 (Homo sapiens)"
  OBSERVED_VALUE: 0.00
- COMPOUND: "CC(C)(O)c1ccccc1CC[C@@H](SCC1(CC(=O)O)CC1)c1cccc(/C=C/c2ccc3ccc(Cl)cc3n2)c1 [Montelukast, montelukast, reference compound]"
  EXPERIMENTAL_SYSTEM: "rCYP2C9 (Homo sapiens)"
  OBSERVED_VALUE: 10.85
- COMPOUND: "O=C1Cc2cc(CCN3CCN(c4nsc5ccccc45)CC3)c(Cl)cc2N1 [Ziprasidone, ziprasidone, reference compound]"
  EXPERIMENTAL_SYSTEM: "rCYP2C9 (Homo sapiens)"
  OBSERVED_VALUE: 0.00
- COMPOUND: "CCCSc1ccc2nc(NC(=O)OC)[nH]c2c1 [Albendazole, albendazole, reference compound]"
  EXPERIMENTAL_SYSTEM: "rCYP2C9 (Homo sapiens)"
  OBSERVED_VALUE: 5.96
- COMPOUND: "O=C(O)Cc1ccccc1Nc1c(Cl)cccc1Cl [Diclofenac, diclofenac, reference compound]"
  EXPERIMENTAL_SYSTEM: "rCYP2C9 (Homo sapiens)"
  OBSERVED_VALUE: 98.61
- COMPOUND: "CNC(=O)Oc1cc(C)c(SC)c(C)c1"
  EXPERIMENTAL_SYSTEM: "rCYP2C9 (Homo sapiens)"
  OBSERVED_VALUE: 6.50

Give % Metabolized at 30 min Incubation with Human Liver Fractions/Enzymes rCYP2C9 for each of the items listed below.
1. CSc1nc2cc(Cl)c(Oc3cccc(Cl)c3Cl)cc2[nH]1 [Triclabendazole, reference compound]
2. CNC(=O)O/N=C/C(C)(C)SC

1. 55.00
2. 0.00
